assayName: Cell Viability - LYMP2-004 (AID 966);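 further: cells exposed to compound for 24 h; nearly all actives have a fitted effect of over 65% in size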
testSettings: LYMP2-004 lymphoblastoid cell viability, qHTS; series mostly up to 92.2 µM
Inconclusive results are not listed. Activity calls are given as the source filed them. The call rests on the fitted dose curve; in most records, active means well fitted cell-killing curve with a large enough effect; inconclusive means small, poorly fitted or top-dose-only effect, or effect the other way; inactive means no such curve, though single readings can be large or run the other way.
// classify into active, inactive

Query string: Outcome logged for CC(CCC(=O)O)(c1ccc(O)cc1)c1ccc(O)cc1 in this assay:
Result string: inactive

Query string: Per the records of this test, what outcome belongs to CCCCCCN ?
Result string: inactive

Query string: What did this assay record as the result for CCN(CC)c1ccc2c(C)cc(=O)oc2c1 ?
Result string: inactive

Query string: // param item: CC(=O)CC(=O)Nc1ccccc1 ; yields the recorded call
Result string: inactive

Query string: What did the test return for O=c1[nH]ncc2ccccc12 ?
Result string: inactive

Query string: Query: recorded result category for CC(=O)OC1CC(C)OC(C)O1 (stereo not given) in this test
Result string: inactive

Query string: Assay result, entry NC(=O)Nc1nc2ccccc2[nH]1 — outcome?
Result string: inactive

Query string: # fetch the recorded call for Oc1cc2c(cc1O)[C@H]1c3ccc(O)c(O)c3OC[C@@]1(O)C2 here
Result string: active

Query string: Called result for S=C(NC1CCCCC1)NC1CCCCC1
Result string: inactive

Query string: Tell me the assay call for Nc1cc(C(=O)O)c(O)c(S(=O)(=O)O)c1 please.
Result string: inactive

Query string: What is the recorded call for this compound in the test? OCC(CO)(CBr)CBr
Result string: inactive

Query string: Check the results log: what was the call for CC(C)(C)C(=O)C1C(=O)c2ccccc2C1=O ?
Result string: inactive

Query string: I would be grateful if you could indicate the recorded call for N=C1C=CC(=C(c2ccc(N)cc2)c2ccc(N)cc2)C=C1 .
Result string: active

Query string: Would you mind telling me which call this test gave OC1CCCCC1 ?
Result string: inactive

Query string: How was Cc1ccccc1OCC1CO1 (stereo not given) classified in this test?
Result string: inactive

----------
assayName: Cell Viability - N2a (AID 540);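 further: cells exposed to compound for 40 h at 37 °C; plate controls were DMSO alone for no effect and tamoxifen control for full effect; nearly all actives have a fitted effect of over 45% in size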
testSettings: N2a mouse neuroblastoma cell viability; at 92.2 µM (top of the series)
Records with an inconclusive call do not appear.
Give activity change, negative = cytotoxicity for every item shown.
Unit % implied. Number only.

Query string: Fill blank: measured activity change, negative = cytotoxicity of the molecule CC(=O)Nc1cccc(C)c1 is ____.
Result string: -6.73

Query string: Can you share its activity change, negative = cytotoxicity? I mean this molecule: Cc1ccc(N)cc1[N+](=O)[O-]
Result string: -8.48

Query string: What activity change, negative = cytotoxicity value was documented for this molecule, O=c1[nH]ncc2ccccc12 ?
Result string: -2.98

Query string: Name the recorded activity change, negative = cytotoxicity for O=C(OCc1ccccc1)c1ccccc1O .
Result string: -11.2

Query string: Given O=C(O)c1cc(N=Nc2ccc([N+](=O)[O-])cc2)ccc1O , state its recorded activity change, negative = cytotoxicity.
Result string: -5.65

Query string: Entry CC(=O)CC(=O)Nc1ccccc1 has what activity change, negative = cytotoxicity?
Result string: -10.9

Query string: Looking for the measured activity change, negative = cytotoxicity of C/C(Cl)=C/CCl , can you help?
Result string: -6.1

Query string: Endpoint output: activity change, negative = cytotoxicity of CCCC(=O)OC(=O)CCC . Value?
Result string: -12.9

Query string: Tell me the measured activity change, negative = cytotoxicity of OC1CCCCC1 , please.
Result string: -3.26

Query string: Recorded activity change, negative = cytotoxicity of O=[N+]([O-])c1cc(Cl)c(Cl)c(Cl)c1Cl , please.
Result string: -28

Query string: Fill blank: measured activity change, negative = cytotoxicity of the molecule O=C(O)c1ccc([N+](=O)[O-])cc1 is ____.
Result string: 9.32

Query string: Please look up its activity change, negative = cytotoxicity: Nc1cc(C(=O)O)c(O)c(S(=O)(=O)O)c1
Result string: -4.5

Query string: Would you mind telling me what activity change, negative = cytotoxicity value was observed for c1cc2c3c(c1)ccc1cccc(c13)C2 ?
Result string: 0.332

Query string: Data request, read-out activity change, negative = cytotoxicity, for CCNC(=S)NCC
Result string: -22

Query string: Query: activity change, negative = cytotoxicity; subject: Cc1c2ccccc2c(C)c2c1ccc1ccccc12
Result string: -25
